# tgt: HIV-1 Env of pseudovirus REJ04541 (HIV-1)
# assay-notes: cell-based or functional assay
Below is a list of entries, each paired with its recorded IC50, pseudovirus neutralization (TZM-bl assay) value.
assay-metric: IC50, pseudovirus neutralization (TZM-bl assay) (µg/mL)

{"binder": "1469_M23 (PG16) (TCN-118) (antibody, V domains shown) VH: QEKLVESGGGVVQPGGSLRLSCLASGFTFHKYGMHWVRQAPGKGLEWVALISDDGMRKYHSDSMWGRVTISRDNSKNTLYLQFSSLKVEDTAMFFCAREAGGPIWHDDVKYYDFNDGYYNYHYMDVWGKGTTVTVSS VL: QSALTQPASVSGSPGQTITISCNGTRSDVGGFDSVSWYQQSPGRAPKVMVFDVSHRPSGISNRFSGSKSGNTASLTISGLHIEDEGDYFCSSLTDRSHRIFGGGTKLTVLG", "result-modifier": "=", "numeric-result": 0.39}
{"binder": "1489_I13 (PG16) (TCN-120) (antibody, V domains shown) VH: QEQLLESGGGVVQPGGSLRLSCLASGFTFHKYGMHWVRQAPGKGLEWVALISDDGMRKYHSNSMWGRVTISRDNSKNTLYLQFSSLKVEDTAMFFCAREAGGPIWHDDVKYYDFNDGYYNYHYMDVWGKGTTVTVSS VL: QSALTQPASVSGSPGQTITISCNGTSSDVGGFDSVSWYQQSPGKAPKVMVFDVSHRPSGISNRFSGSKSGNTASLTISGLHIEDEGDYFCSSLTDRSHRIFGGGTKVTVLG", "result-modifier": "=", "numeric-result": 0.34}
{"binder": "1503_H05 (PG16) (TCN-119) (antibody, V domains shown) VH: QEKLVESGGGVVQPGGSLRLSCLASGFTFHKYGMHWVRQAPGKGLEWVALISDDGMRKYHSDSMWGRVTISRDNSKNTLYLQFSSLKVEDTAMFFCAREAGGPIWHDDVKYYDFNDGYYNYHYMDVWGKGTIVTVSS VL: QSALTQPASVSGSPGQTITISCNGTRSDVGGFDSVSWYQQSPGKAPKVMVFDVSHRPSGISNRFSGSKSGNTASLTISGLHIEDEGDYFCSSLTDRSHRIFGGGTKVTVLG", "result-modifier": "=", "numeric-result": 0.22}
{"binder": "1456_A12 (PG16) (TCN-117) (antibody, V domains shown) VH: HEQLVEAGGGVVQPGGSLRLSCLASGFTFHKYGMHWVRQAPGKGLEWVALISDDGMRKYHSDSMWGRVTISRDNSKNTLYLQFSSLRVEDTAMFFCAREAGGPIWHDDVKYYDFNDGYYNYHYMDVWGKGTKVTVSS VL: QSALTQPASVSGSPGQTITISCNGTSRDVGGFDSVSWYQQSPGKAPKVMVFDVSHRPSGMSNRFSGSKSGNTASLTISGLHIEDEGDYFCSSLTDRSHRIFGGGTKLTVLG", "result-modifier": "<", "numeric-result": 0.01}
